# target.or.system: Prothrombin (Homo sapiens, UniProt P00734)
# test.protocol: Thrombin 1536 HTS Dose Response Confirmation. [Related pubchem assays: 1046 (Thrombin 1536 HTS; hits were confirmed in this assay)]
# Type: functional
The source made the active and inactive calls.
quantity.kind: IC50

Hi! What's the reported IC50 for O=C(COC(=O)CCC(=O)c1cccs1)Nc1ccccc1[N+](=O)[O-] on Prothrombin (Homo sapiens, UniProt P00734)?
6.93 µM (active)

Also Cc1cc(C)nc(-n2nc(C)cc2Nc2ccccc2)n1 ?
> 50 µM (not active)

Also O=c1[nH]nc(SCc2nnc(-c3ccc([N+](=O)[O-])cc3)o2)n1C1CCCCC1 ?
4.04 µM (active)

Also CC(NC(=O)CN(C1CCCCC1)S(C)(=O)=O)c1ccccc1 (stereo not given) ?
> 50 µM (not active)

Next:
Hi! What's the reported IC50 for COc1ccc(N2C(=O)/C(=C/Nc3ccccc3)c3ccccc3C2=O)cc1 on Prothrombin (Homo sapiens, UniProt P00734)?
> 50 µM (not active)

----------
# target.or.system: Nucleotide-binding oligomerization domain-containing protein 2 (Homo sapiens)
# Sequence (Q9HC29 whole entry, the tested form may be a part): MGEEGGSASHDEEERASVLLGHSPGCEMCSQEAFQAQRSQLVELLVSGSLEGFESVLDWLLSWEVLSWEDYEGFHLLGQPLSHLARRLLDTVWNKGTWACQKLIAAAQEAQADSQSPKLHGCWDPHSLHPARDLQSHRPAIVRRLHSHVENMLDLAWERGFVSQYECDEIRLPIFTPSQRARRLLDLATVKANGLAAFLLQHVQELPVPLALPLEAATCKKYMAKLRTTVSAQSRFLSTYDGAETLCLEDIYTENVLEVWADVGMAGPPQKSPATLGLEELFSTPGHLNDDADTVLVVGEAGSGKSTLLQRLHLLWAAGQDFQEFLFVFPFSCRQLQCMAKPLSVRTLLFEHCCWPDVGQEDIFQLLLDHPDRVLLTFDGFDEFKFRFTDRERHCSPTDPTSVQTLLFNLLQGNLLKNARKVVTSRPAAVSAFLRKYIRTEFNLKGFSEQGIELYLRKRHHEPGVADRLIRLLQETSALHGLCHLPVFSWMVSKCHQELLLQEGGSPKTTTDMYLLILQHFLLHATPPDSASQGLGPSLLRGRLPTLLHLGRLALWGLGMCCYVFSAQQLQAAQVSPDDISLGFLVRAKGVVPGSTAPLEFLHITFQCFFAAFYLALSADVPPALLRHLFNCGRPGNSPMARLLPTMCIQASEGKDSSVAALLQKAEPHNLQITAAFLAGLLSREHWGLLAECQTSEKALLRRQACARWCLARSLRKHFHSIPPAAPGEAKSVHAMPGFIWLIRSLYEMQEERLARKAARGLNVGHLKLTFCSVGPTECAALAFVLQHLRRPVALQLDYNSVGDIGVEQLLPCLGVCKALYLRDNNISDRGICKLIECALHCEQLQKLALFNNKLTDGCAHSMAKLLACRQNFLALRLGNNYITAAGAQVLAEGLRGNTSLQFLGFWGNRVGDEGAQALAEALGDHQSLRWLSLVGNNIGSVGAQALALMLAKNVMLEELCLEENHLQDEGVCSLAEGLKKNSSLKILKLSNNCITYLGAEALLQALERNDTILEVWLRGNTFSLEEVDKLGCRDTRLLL
# test.protocol: inhibition of NOD2-driven NF-kB reporter – cell-based, luminescence, uHTS, HEK293 (AID 1566)
# Format: functional
Active and inactive are the calls of the source.
Pick one and only one: 1 = active, -1 = inactive

Solved cases (3 shown):
In this assay, the call recorded for Cc1nc(N2CCC(C)CC2)c2c(C)c(C(=O)Nc3cc(F)ccc3C)sc2n1 was what?
-1

Also COc1ccccc1N1CCN(c2ncc(C(=O)N3CCN(c4cccc(Cl)c4)CC3)c3ccccc23)CC1 ?
1

Also CCC(=O)Nc1nc2ccccc2n1Cc1ccccc1Cl ?
-1

Next:
In this assay, the call recorded for CN(Cc1cccnc1)C(=O)c1cc(COc2ccc3ncccc3c2)on1 was what?
1

----------
Measured IC50 accompanies every entry in the list below.
# target.or.system: UniProt:P03070
# Sequence (P03070 whole entry): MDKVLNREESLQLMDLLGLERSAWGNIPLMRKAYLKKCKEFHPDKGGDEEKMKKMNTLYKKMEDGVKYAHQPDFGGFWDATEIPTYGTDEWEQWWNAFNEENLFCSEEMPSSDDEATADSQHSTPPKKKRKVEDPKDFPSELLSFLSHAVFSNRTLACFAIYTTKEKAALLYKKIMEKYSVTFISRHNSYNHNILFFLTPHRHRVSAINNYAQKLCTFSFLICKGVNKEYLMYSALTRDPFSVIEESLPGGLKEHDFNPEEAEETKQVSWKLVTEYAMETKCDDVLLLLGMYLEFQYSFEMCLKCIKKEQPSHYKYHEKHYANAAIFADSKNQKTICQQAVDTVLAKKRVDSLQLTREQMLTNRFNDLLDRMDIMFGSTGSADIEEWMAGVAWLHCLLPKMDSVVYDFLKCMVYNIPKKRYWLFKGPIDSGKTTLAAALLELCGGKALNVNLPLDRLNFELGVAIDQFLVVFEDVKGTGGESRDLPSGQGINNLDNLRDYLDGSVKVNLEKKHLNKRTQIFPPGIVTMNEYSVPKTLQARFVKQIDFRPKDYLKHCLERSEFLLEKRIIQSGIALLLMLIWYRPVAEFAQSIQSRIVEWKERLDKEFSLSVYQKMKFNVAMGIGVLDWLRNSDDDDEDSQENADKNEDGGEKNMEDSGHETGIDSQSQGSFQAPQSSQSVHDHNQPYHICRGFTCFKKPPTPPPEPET
# Assay type: functional, Betapolyomavirus macacae
The source made the active and inactive calls.

Solved cases (3 shown):
Would you mind telling me what IC50 value was observed for O=[N+]([O-])c1c(Nc2cccc(O)c2)cc(Cl)c2nonc12 ?
47.8 µM (active)

Also COc1cc(/C=N\Nc2nc(-c3cccs3)c(NC(C)=O)s2)ccc1O ?
27.8 µM (active)

Also CC1=NN(c2cccc(C(=O)O)c2)C(=O)/C1=C\C=C\c1ccco1 ?
27.6 µM (active)

Next:
Would you mind telling me what IC50 value was observed for N#Cc1c(-c2ccco2)cc(-c2ccccc2)[nH]c1=O ?
68.7 µM (active)

Also COc1cc(/C=N/NC(=O)CCc2c(C)n[nH]c2C)ccc1O ?
12.9 µM (active)

----------
Measured IC50 accompanies every entry in the list below.
# target.or.system: Calpain-2 catalytic subunit (Sus scrofa, UniProt P43367)
# Sequence (P43367 whole entry): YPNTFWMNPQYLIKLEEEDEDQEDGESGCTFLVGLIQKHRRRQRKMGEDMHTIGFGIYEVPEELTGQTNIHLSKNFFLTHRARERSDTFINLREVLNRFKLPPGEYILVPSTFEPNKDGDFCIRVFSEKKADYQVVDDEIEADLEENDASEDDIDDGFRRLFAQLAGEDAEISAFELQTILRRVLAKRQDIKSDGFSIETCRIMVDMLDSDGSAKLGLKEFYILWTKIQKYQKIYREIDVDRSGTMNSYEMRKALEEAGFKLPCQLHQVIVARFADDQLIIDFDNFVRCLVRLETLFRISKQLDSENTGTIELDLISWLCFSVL
# test.protocol: m-calpain protease blockers, concentration series – biochemical, fluorogenic peptide substrate, dose response (AID 1420)
# Format: functional

Would you mind telling me what IC50 value was observed for Oc1ccccc1N=Nc1ccccc1O ?
> 50 µM (not active)

Next:
Would you mind telling me what IC50 value was observed for CC(C)Cn1c(S)nnc1-c1csc2c1CCCC2 ?
13.5 µM (not active)

Also NS(=O)(=O)c1ccc(CCNCc2cc(Br)ccc2OCc2ccccc2F)cc1 ?
> 50 µM (not active)

Also COc1ccc(CCCc2nnc(SCC(=O)Nc3ccc(C)c(C)c3)o2)cc1 ?
< 0.4 µM (not active)

Also NC(=O)c1ccc(-n2nnnc2Oc2ccccc2C(=O)N2CCOCC2)cc1 ?
3.94 µM (not active)

Also O=C(COC(=O)CC12CC3CC(CC(C3)C1)C2)Nc1cccnc1Cl ?
> 50 µM (not active)

Just for reference, ChEMBL document CHEMBL1201862 is where these values come from.
